These data points were gathered from the supplement of paper PMC7125110.

B1: glmS ribozyme (parent)
chain: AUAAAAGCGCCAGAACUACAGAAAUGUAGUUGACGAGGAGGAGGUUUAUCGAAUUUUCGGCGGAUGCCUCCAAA

variants of: B1; assay: self-cleavage kobs at 160 uM GlcN6P; higher = faster cleavage; RNA array; details: with glucosamine-6-phosphate
Variants at the floor of the assay were thinned out.
REPORTED_PROPERTY: self-cleavage kobs at 160 uM GlcN6P

Worked examples, 5 variants total:
SEQUENCE_DATA	self-cleavage kobs at 160 uM GlcN6P
AUAAAAGCGCCAGAACUACAGAAAUGUAGUUACCGAGGAGGAGGUUUAUCGAAUUUUCGGCGGAUGCCUCCAAA [G32A A33C]	< 1e-05 s⁻¹
AUAAAAGCGCCAGAACUACAGAAAUGUAGUUGACGAGGAGGAGGUUUAUCGAAUUUUCGGCGGAAACCUCCAAA [U65A G66A]	6.05e-05 s⁻¹
AUAAAAGCGCCAGAACUACAGAAAUGUAGUUGACGAUCAGGAGGUUUAUCGAAUUUUCGGCGGAUGCCUCUAAA [G37U G38C C71U]	< 1e-05 s⁻¹
AUAAAAGCGCCACAACUACAGAAAUGUAGUUGACGAGGAGGAGGUUUAGCGAAUUUUCGGCGGAUGCCUCCAAA [G13C U49G]	< 1e-05 s⁻¹
AUAAAAGCGCCAGUACUACAGAAAUGUAGUUGACGAGGAGGAGGUUUAUCGACUUUUCGGCGGAUGCCUCCAAA [A14U A53C]	9.57e-05 s⁻¹

Look up self-cleavage kobs at 160 uM GlcN6P for the entries below, preserving their order.
1. AUAAAAGCGCUAGAACUACAGAAAUGUAGUUGACAAGGAGGAGGUUUAUCGAAUUUUCGGCGGAUGCCUCCAAA [C11U G35A]
2. AUAAAAGGGCUAGAACUACAGAAAUGUAGUUGACGAGGAGGAGGUUUUUCGAAUUUGCGGCGGAUGCCUCUAAA [C8G C11U A48U U57G C71U]
3. AUAAAAGCGCCAGAAGUACAGAAAUGUAGUUGACGAGGAGGAGGUUUAUCGAAUUUUCGGCGGAUGCCUCUAAA [C16G C71U]
4. AUAAAAGCGCCUGCACUACAGAAAUGUAGUUGACGAGGAGGAGGUUUAUCGAAUUUUCGGCGGAUGCCUCUAAA [A12U A14C C71U]
5. AUAAAAGCGCCAGAACUACAGAAAUGUAGUUGACGAGGAUGAGGUUUAUCUAAUUUUUGGCGGAUGCCUCCAAA [G40U G51U C58U]

Result:
1. < 1e-05 s⁻¹
2. < 1e-05 s⁻¹
3. 0.000323 s⁻¹
4. 0.000143 s⁻¹
5. < 1e-05 s⁻¹
